Tested on: Fyn (UniProt P06241)
Sequence (P06241 whole entry, looked up): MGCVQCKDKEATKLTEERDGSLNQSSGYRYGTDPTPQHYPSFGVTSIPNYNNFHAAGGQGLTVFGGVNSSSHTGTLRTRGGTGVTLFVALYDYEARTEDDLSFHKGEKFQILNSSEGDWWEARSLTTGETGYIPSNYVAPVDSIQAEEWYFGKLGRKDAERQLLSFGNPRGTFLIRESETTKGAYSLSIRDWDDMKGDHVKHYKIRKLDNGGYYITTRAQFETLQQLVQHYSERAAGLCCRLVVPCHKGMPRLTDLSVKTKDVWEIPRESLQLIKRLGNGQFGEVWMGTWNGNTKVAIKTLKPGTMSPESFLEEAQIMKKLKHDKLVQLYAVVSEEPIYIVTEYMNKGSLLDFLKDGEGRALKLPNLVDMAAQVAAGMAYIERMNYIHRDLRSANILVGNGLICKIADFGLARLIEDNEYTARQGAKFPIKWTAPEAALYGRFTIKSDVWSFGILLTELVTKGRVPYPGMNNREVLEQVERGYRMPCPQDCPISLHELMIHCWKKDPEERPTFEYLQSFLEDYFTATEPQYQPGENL
Procedure summary: phosphorylation enrichment, bacterial display (enrichment ratio); higher = better substrate or ligand; peptides without Tyr show the background;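 also: 11-residue human phosphosite peptides and single-mutation variants displayed on the E. coli surface, counted by deep sequencing, each peptide's frequency after selection divided by its frequency in the unselected input library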;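 also: frequency after pTyr selection over input frequency; kinase dosed for 20-30% of maximal phosphorylation in three min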
Each entry below carries its reported phosphorylation enrichment.
Property name: phosphorylation enrichment

In [3]: df
Out[3]:
                       residue_sequence  endpoint_value
 0             TRNRDYDDIDD [TTYH2_Y424]           0.451
 1      QTEAPYRFIYM [PTPN11_Y511_Q510P]           0.697
 2                AEDKPYAELWM [MPI_Y46]            2.27
 3            KSIEEYLKLVG [RASAL2_Y381]           0.404
 4             YSKTQYNQVPS [CXADR_Y318]           0.461
 5             GRFCGYKSKHG [EPHA3_Y570]           0.321
 6          ALPGEYIPTVF [RAC1_Y32_F28L]           0.612
 7        QRPYVYYYSYL [PTEN_Y176_R173P]            3.38
 8             NPQKSYFIRLF [WAS_Y83_YF]           0.453
 9      GQECKYPPTQD [METAP2_Y137_E136K]           0.515
10                          LANNEYYFRVC           0.743
11              GITVAYTIPKK [UBA5_Y372]           0.475
12        MICSAYALGGL [CPS1_Y590_R587C]           0.659
13      AGDGRYEVLFL [SEMA3F_Y478_A474G]           0.455
14         TFINKYQGKLF [HGD_Y249_V245F]           0.414
15             ICTVDYLLRLQ [RYR1_Y3921]           0.539
16             FSEVRYVKEPY [HIPK4_Y170]           0.372
17  VLALWYFFLTN [ZDHHC23_Y127_H132N_YF]           0.535
18          NFDRVYIFHLR [MYOF_Y1137_YF]           0.414
19           FRVAGYETQGG [TIA1_Y383_YF]           0.409
20            KRYRIYHLATS [BRCA2_Y3009]           0.445
21       KVPCHYDDPGK [FOXG1_Y246_R244C]           0.437
22            ETDSEYVKLAK [C7orf57_Y70]           0.433
23     KDKLPYLFDDP [GPX2_Y125_P126L_YF]           0.479
24    VHLFAYDWISI [BEST1_Y227_G222V_YF]           0.589
25            TSSAGYRAAEG [COL6A3_Y543]           0.422
26          RLLRGYDQSAF [HLA-C_Y137_YF]           0.416
27               NVTGHYISPFH [PPA2_Y59]           0.448
28            LHAAAYRNALA [UQCRC2_Y182]            0.55
29            FDCKWYIPLTD [BCR_Y756_YF]            0.41
30       LITTLYSGFLG [KCNQ1_Y267_I268S]            5.49
31           QRPGPYDRPGA [HNRNPH2_Y210]           0.322
32             YSTSPYLLEAA [BRIP1_Y921]            4.67
33            PGRRFYVVACD [RNASE3_Y134]           0.389
34            DHFNQYEQQKM [CHD7_Y75_YF]           0.382
35    FGFPGYQCKHF [TIMP3_Y177_S179C_YF]           0.445
36    QKLPLYILENN [VPS13B_Y2774_S2773L]           0.556
37        HKLSFCEFDFE [BTK_Y40_Y40C_YF]           0.764
